- assay-method-text: Plasma pharmacokinetics of oral SNDX-275 in adults with advanced acute leukemias (Example 3)
- Format: in vivo, human
- experimental-context: human, plasma, oral, 4 mg/m2; 4 mg/m^2, first dose, with food, 7 patients; read-out: T1/2 (mean and SD) (converted)
measured-endpoint: half-life

Please indicate half-life recorded for Nc1ccccc1NC(=O)c1ccc(CNC(=O)OCc2cccnc2)cc1
36.6 h

====

- assay-method-text: Plasma pharmacokinetics of oral SNDX-275 in adults with advanced acute leukemias (Example 3)
- Assay type: in vivo, human
- experimental-context: human, plasma, oral, 10 mg/m2; 10 mg/m^2, first dose, with food, n = 5; read-out: AUC (mean and SD)
measured-endpoint: AUC (ng·h/mL)
Give bare numbers, in ng·h/mL.

Note down AUC recorded for Nc1ccccc1NC(=O)c1ccc(CNC(=O)OCc2cccnc2)cc1
312
